# ASSAY_METHOD_TEXT: folding stability dG unfold from trypsin proteolysis; higher = more stable
folding stability dG unfold of 0.01 kcal/mol or higher: YES. Under 0.01 kcal/mol: NO.

RESIDUE_STRING	ASSIGNED_CATEGORY
SAGGSAGGNVLIPKSKLEEFLKNIPFEVLVLNPENPRLEIARVEADDIFVDDDYALILLTVSNDSAGGSAGG [r6_753_TrMRF]	YES
SAGGSAGGSPIKIEFPPGIKEIEPIENDPNKTIMFRFPDYLVRIRINPKNGKIDIEIVPPGDMSAGGSAGGS [r12_858_TrROS]	YES
SAGGSAGGSNKPVYFRAKIRNPDGKPIGEIEIPAKFDSLEDARSFAENLAKDLPGYKVEIELVSAGGSAGGS [r20_201_TrROS]	YES
SAGASPGVRLTERSEEVIEVEPGEKEKLKEEIKKSEKKYPGGLTEKVEYEVDPNSNKVTITITTTTGLSAGG [r19_45_JUSTAS]	NO
SAGMVVKFVSPSKKYVAVVYFSPDGKYRTALLYDASGELVSVIPSSVPVEELLEAFPDATVEVYPLDPPSAG [r5_314_TrMRF]	YES
SAGMSTSGPIFVPEGPPAIYISYPKPNVKFVVPVSEGIEAVKKRAEEPGLNPVIIKVVETPPGVPVTLSAGG [r19_386_JUSTAS]	NO
SAGMVVTERTEPATGRPYTVTTEEDGSVTGSYPATGDTRSTTLNDRTTFSLPTTSPEVAAAQVEAALAASAG [r14_561_JUSTAS]	NO
SAGGSAGGSAGGEKEPVTLLVVRVDGKLVVVSEEELKKLAEELNVEVEVRLVTVTKEELKSAGGSAGGSAGG [r7_185_TrROS_Hall]	YES
SAGGSAGGSAGGMTIVLNIPKEELTEEEIKKLKESLPSDNPVKIIVKPKPPRKFYPKSTISAGGSAGGSAGG [r7_979_JUSTAS]	YES
SAGMEVEWEIGDADEDGYVRLTVKAVLLIPETGKPVVVEAEIKMPIEELENEEVLKELARKVVEEAEAESAG [r5_964_TrMRF]	YES
SAGHPWMFRAKVEYDDGKPVGEREINIPGMPIDDIASDLFNEPGLRKVKIEFYWMDGEPQEIEIPVKPSAGG [r19_269_TrROS]	YES
SSMTTTEKKYTYNDSSISVSTTTLPDGSKLITTPITRKNPDGIDVTETLTTLDKGSGVTPVSPSTSTLNTSA [r9_554_JUSTAS]	NO
SKEKVKVEIKLTVTKVFPPEELEKDPKTGKYRNKDTGKWFEPPKVVVKELTLTIEMSKEEVEKLLKELLKSA [r9_165_TrROS_Hall]	YES
SMTAEVTLTIVYPDGTSTTLPMTFPADDPEALRAAIRAAVAAAGYTPTALQMTFTAQPDGSVRVDVTVTVAS [r1_281_JUSTAS]	YES
SAGGSAGGSAKITIPASQITHVDLETGELLVDHPSGRPIIFRVDPDRPDLILVEDPSGLSLGSAGGSAGGSA [r18_418_TrMRF]	NO
SAGGSAGGSAGEKDLPVIEVEFPFPSSFPLPLIKKFAEPFGVKKVEFFEDGTVKVLYVLDSAGGSAGGSAGG [r11_961_TrMRF]	YES
SWMFMIEVHDPKNGKERTVPINMPKEQVLDQIREAQEKGPRIEIWGIPPNAIKEIAEEAKLPVEIHPMPPSA [r9_1207_TrROS]	YES
